- assay_target: FER (human)
- assay_name: radiometric filter-binding kinase assay, Kinase HotSpot
- reported_conditions: compound 0.5 µM; ATP 10 µM
# Lookup of reported residual activity keyed by entry
State just the number; it will be interpreted in %.

Worked set:
Nc1n[nH]c2nnc(-c3c(-c4ccccc4)nn4ccccc34)cc12 | 90.8
COc1cc2nccc(Oc3ccc(NC(=S)NC(=O)c4ccccc4C)cc3)c2cc1OC | 58.2
Nc1nc(Nc2ccc(S(N)(=O)=O)cc2)nn1C(=S)Nc1c(F)cccc1F | 21.7

Now examine the next entry.
QUERY: Write down the reported residual activity of Clc1ccc(Nc2nnc(Cc3ccncc3)c3ccccc23)cc1 , test system: FER (human).
RESULT: 91.4

====

# Lookup of reported residual activity keyed by entry
- assay_target: PTK6 (human) (UniProt Q13882)
- Sequence (Q13882 whole entry, looked up): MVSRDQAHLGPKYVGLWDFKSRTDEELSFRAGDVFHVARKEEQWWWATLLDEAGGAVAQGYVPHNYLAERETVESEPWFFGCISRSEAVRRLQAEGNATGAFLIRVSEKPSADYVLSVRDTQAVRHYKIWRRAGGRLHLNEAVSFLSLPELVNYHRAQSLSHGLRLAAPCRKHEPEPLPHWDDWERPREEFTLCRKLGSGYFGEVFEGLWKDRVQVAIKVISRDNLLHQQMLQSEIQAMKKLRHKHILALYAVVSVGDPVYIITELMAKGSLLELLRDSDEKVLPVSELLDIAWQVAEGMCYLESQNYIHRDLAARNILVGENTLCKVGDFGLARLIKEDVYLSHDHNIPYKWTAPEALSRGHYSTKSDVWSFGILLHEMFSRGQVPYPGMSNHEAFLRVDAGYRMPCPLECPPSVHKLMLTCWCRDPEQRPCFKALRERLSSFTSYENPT
- assay_name: radiometric filter-binding kinase assay, Kinase HotSpot
- reported_conditions: compound 0.5 µM; ATP 10 µM

CCN1/C(=C/C(C)=O)Sc2ccc(OC)cc21 | 85.3%
COc1ccc(-c2cnc3c(-c4ccsc4)cnn3c2)cc1 | 77.5%
CC(C)(C)c1nc2c3ccc(F)cc3c3c(=O)[nH]ccc3c2[nH]1 | 88%
O=C1Cc2c([nH]c3ccc([N+](=O)[O-])cc23)-c2ccccc2N1 | 92.7%
O=c1cc(-c2cccc3c2Sc2ccccc2S3)oc(N2CCOCC2)c1 | 90.6%
O=c1cc(N2CCNCC2)oc2c(-c3ccccc3)cccc12 | 99.2%
Nc1nc(Nc2ccc(S(N)(=O)=O)cc2)nn1C(=O)c1c(F)cccc1F | 83.9%
Oc1ccc(-c2nc(-c3ccc(F)cc3)c(-c3ccncc3)[nH]2)cc1 | 50.3%

Now examine the next entry.
QUERY: residual activity lookup needed for CSc1nc(-c2ccc(F)cc2)c(-c2ccnc(NC(C)c3ccccc3)c2)[nH]1 (centres undefined) , thanks.
RESULT: 96.8%

====

- assay_target: ADRBK1 (human)
- assay_name: radiometric filter-binding kinase assay, Kinase HotSpot
- reported_conditions: compound 0.5 µM; ATP 10 µM
observation_type: residual activity (%)
State just the number; it will be interpreted in %.

Worked set:
Nc1n[nH]c2nnc(-c3c(-c4ccccc4)nn4ccccc34)cc12 | 95
O=C1Cc2c([nH]c3ccc([N+](=O)[O-])cc23)-c2ccccc2N1 | 91.8
Oc1ccc(-c2nc(-c3ccc(F)cc3)c(-c3ccncc3)[nH]2)cc1 | 101
COc1cc2ncnc(Nc3ccc(F)c(Cl)c3)c2cc1OCCCN1CCOCC1 | 93.3
COc1cc2nccc(Oc3ccc(NC(=S)NC(=O)c4ccccc4C)cc3)c2cc1OC | 95.6
CCCNC(=O)Nc1ccc(Oc2ncnc3cc(OC)c(OC)cc23)cc1Cl | 103

QUERY: Write down the reported residual activity of O=c1cc(-c2cccc3c2Sc2ccccc2S3)oc(N2CCOCC2)c1 , test system: ADRBK1 (human).
RESULT: 79

QUERY: Write down the reported residual activity of Nc1nc(Nc2ccc(S(N)(=O)=O)cc2)nn1C(=S)Nc1c(F)cccc1F , test system: ADRBK1 (human).
RESULT: 97.8

QUERY: Write down the reported residual activity of CC(C)(C)c1nc2c3ccc(F)cc3c3c(=O)[nH]ccc3c2[nH]1 , test system: ADRBK1 (human).
RESULT: 98.5

QUERY: Write down the reported residual activity of O=C1Nc2ccccc2/C1=C\c1c(Cl)[nH]c2ccccc12 , test system: ADRBK1 (human).
RESULT: 98.9

====

- assay_target: CSNK1G1 (human)
- assay_name: radiometric filter-binding kinase assay, Kinase HotSpot
- reported_conditions: compound 0.5 µM; ATP 10 µM
# Lookup of reported residual activity keyed by entry
State just the number; it will be interpreted in %.

O=C(Nc1ccc(Cl)cc1)c1ccccc1NCc1ccncc1 | 110
COc1cc2nccc(Oc3ccc(NC(=S)NC(=O)c4ccccc4C)cc3)c2cc1OC | 80.1
O=c1cc(N2CCNCC2)oc2c(-c3ccccc3)cccc12 | 103
O=C(NC(NC(=S)Nc1ccc(F)c([N+](=O)[O-])c1)C(Cl)(Cl)Cl)C(c1ccccc1)c1ccccc1 (stereo not given) | 83.3
Cc1ccc(NC(=O)c2ccc(CN3CCN(C)CC3)cc2)cc1Nc1nc(-c2cccnc2)cs1 | 92.4
O=C1Cc2c([nH]c3ccc([N+](=O)[O-])cc23)-c2ccccc2N1 | 100

QUERY: Write down the reported residual activity of CSc1nc(-c2ccc(F)cc2)c(-c2ccnc(NC(C)c3ccccc3)c2)[nH]1 (stereo not given) , test system: CSNK1G1 (human).
RESULT: 67.2

QUERY: Write down the reported residual activity of COc1cc2ncnc(Nc3ccc(F)c(Cl)c3)c2cc1OCCCN1CCOCC1 , test system: CSNK1G1 (human).
RESULT: 99.5

QUERY: Write down the reported residual activity of O=C1Nc2cc(Br)ccc2/C1=C1/Nc2ccccc2/C1=N\O , test system: CSNK1G1 (human).
RESULT: 87.6

QUERY: Write down the reported residual activity of CCN1/C(=C/C(C)=O)Sc2ccc(OC)cc21 , test system: CSNK1G1 (human).
RESULT: 87.8

====

- assay_target: UniProtKB Q8N4C8
- Sequence (Q8N4C8 whole entry, looked up): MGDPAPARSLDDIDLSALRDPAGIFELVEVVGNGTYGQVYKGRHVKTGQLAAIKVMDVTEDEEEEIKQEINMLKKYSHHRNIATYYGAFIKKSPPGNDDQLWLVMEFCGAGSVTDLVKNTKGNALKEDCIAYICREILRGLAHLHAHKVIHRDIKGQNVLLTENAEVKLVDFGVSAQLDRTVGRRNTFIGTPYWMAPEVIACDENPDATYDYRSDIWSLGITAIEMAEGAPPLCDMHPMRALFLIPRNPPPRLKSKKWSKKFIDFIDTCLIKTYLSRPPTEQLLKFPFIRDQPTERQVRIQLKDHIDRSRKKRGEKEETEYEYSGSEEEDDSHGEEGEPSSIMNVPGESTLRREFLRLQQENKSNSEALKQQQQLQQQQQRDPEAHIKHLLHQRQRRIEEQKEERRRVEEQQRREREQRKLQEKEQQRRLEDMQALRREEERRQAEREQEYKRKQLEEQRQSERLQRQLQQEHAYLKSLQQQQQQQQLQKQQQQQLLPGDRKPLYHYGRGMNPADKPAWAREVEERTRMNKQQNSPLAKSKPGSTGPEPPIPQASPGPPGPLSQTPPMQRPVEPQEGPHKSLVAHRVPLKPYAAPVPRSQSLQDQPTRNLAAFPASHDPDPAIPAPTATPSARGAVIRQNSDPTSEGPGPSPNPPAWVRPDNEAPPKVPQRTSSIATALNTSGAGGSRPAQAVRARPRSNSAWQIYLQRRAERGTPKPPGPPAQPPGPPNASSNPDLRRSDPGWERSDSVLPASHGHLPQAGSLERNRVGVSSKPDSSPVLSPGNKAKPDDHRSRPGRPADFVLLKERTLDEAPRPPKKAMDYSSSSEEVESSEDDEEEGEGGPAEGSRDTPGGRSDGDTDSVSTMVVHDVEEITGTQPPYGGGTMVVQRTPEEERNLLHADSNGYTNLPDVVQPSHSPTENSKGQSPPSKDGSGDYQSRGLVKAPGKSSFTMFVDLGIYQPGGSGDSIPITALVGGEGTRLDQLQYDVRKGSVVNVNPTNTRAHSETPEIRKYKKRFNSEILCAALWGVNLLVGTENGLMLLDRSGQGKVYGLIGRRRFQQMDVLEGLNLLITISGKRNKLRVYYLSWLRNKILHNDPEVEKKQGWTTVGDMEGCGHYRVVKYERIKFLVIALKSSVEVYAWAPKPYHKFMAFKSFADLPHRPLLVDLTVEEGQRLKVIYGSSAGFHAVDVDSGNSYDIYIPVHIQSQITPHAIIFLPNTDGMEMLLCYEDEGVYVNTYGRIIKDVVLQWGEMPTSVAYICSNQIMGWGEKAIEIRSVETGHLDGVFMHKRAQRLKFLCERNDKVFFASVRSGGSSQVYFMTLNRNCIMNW
- assay_name: radiometric filter-binding kinase assay, Kinase HotSpot
- reported_conditions: compound 0.5 µM; ATP 10 µM
observation_type: residual activity (%)
State just the number; it will be interpreted in %.

O=c1cc(N2CCNCC2)oc2c(-c3ccccc3)cccc12 | 97
NC(=O)c1ccc(N(C(N)=O)c2c(F)cccc2F)nc1-c1ccc(F)cc1F | 100
CC(C)[C@H](CO)Nc1nc(Nc2cccc(Cl)c2)c2ncn(C(C)C)c2n1 | 98.6
O=C(Nc1ccc(Cl)cc1)c1ccccc1NCc1ccncc1 | 96.9
Nc1nc(Nc2ccc(S(N)(=O)=O)cc2)nn1C(=S)Nc1c(F)cccc1F | 3.06
COc1cc2nccc(Oc3ccc(NC(=S)NC(=O)c4ccccc4C)cc3)c2cc1OC | 90.1
O=C1Cc2c([nH]c3ccc([N+](=O)[O-])cc23)-c2ccccc2N1 | 20.4
Nc1nc(Nc2ccc(S(N)(=O)=O)cc2)nn1C(=O)c1c(F)cccc1F | 98.1

QUERY: residual activity lookup needed for Oc1ccc(-c2nc(-c3ccc(F)cc3)c(-c3ccncc3)[nH]2)cc1 , thanks.
RESULT: 102

QUERY: residual activity lookup needed for CCCNC(=O)Nc1ccc(Oc2ncnc3cc(OC)c(OC)cc23)cc1Cl , thanks.
RESULT: 90.1

QUERY: residual activity lookup needed for O=c1cc(-c2cccc3c2Sc2ccccc2S3)oc(N2CCOCC2)c1 , thanks.
RESULT: 100

QUERY: residual activity lookup needed for Nc1n[nH]c2nnc(-c3c(-c4ccccc4)nn4ccccc34)cc12 , thanks.
RESULT: 73

QUERY: residual activity lookup needed for COc1ccc(-c2cnc3c(-c4ccsc4)cnn3c2)cc1 , thanks.
RESULT: 63.7

====

- assay_target: WNK3 (human)
- assay_name: radiometric filter-binding kinase assay, Kinase HotSpot
- reported_conditions: compound 0.5 µM; ATP 10 µM
# Lookup of reported residual activity keyed by entry
Returns: string containing the numeric result and its unit.

CS(=O)c1ccc(-c2nc(-c3ccc(F)cc3)c(-c3ccncc3)[nH]2)cc1 (stereo not given) | 99%

QUERY: residual activity lookup needed for CC(C)(C)c1nc2c3ccc(F)cc3c3c(=O)[nH]ccc3c2[nH]1 , thanks.
RESULT: 90%

QUERY: residual activity lookup needed for CCCNC(=O)Nc1ccc(Oc2ncnc3cc(OC)c(OC)cc23)cc1Cl , thanks.
RESULT: 93.8%

QUERY: residual activity lookup needed for NC(=O)c1ccc(N(C(N)=O)c2c(F)cccc2F)nc1-c1ccc(F)cc1F , thanks.
RESULT: 96.6%

QUERY: residual activity lookup needed for Clc1ccc(Nc2nnc(Cc3ccncc3)c3ccccc23)cc1 , thanks.
RESULT: 99.1%

====

# Lookup of reported residual activity keyed by entry
- assay_target: JAK2 JH1 JH2 (human) (UniProt O60674)
- Sequence (O60674 whole entry, looked up): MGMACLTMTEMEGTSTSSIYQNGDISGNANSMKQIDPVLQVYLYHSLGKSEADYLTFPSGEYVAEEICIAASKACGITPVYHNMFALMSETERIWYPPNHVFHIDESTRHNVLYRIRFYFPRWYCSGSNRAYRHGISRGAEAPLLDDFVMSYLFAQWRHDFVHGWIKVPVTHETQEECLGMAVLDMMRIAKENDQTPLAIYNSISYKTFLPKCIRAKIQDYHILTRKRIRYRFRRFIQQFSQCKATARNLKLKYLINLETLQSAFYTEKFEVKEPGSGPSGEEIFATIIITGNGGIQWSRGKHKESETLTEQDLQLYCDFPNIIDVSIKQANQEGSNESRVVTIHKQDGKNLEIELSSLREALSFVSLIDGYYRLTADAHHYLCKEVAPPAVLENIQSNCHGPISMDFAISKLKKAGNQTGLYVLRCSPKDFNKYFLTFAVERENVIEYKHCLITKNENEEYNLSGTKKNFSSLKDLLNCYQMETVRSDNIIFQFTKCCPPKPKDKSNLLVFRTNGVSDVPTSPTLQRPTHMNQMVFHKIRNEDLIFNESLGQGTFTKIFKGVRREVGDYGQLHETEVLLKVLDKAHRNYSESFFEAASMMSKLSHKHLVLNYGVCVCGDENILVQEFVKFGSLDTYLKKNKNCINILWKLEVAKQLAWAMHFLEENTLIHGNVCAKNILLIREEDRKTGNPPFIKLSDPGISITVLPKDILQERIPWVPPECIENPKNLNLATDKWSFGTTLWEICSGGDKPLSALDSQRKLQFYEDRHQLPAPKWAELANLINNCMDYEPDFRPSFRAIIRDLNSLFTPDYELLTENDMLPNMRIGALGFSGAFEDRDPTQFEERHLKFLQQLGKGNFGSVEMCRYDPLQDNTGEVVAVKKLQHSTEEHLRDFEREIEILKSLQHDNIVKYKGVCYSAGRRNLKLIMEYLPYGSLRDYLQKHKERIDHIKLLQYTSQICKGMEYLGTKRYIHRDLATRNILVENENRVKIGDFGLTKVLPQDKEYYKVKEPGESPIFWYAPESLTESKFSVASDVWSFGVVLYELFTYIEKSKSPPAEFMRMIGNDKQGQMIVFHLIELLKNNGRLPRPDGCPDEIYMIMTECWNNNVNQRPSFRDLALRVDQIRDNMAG
- assay_name: radiometric filter-binding kinase assay, Kinase HotSpot
- reported_conditions: compound 0.5 µM; ATP 10 µM
State just the number; it will be interpreted in %.

Worked set:
O=C1Nc2cc(Br)ccc2/C1=C1/Nc2ccccc2/C1=N\O | 93.8
COc1cc2nccc(Oc3ccc(NC(=S)NC(=O)c4ccccc4C)cc3)c2cc1OC | 97.7
O=c1cc(N2CCNCC2)oc2c(-c3ccccc3)cccc12 | 104

Now examine the next entry.
QUERY: residual activity lookup needed for O=C1Nc2ccccc2/C1=C\c1c(Cl)[nH]c2ccccc12 , thanks.
RESULT: 103

====

# Lookup of reported residual activity keyed by entry
- assay_target: UniProt O14965
- Sequence (O14965 whole entry, looked up): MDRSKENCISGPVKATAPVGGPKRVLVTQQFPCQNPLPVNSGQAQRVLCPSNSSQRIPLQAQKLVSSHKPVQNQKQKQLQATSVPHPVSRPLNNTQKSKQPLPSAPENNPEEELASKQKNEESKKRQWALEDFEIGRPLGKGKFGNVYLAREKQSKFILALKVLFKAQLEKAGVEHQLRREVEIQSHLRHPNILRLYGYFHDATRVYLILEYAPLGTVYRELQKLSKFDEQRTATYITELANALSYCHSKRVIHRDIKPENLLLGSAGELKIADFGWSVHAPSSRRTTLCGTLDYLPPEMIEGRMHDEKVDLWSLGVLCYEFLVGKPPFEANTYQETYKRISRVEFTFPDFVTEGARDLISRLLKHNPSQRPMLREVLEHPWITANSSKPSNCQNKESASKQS
- assay_name: radiometric filter-binding kinase assay, Kinase HotSpot
- reported_conditions: compound 0.5 µM; ATP 10 µM
State just the number; it will be interpreted in %.

QUERY: residual activity lookup needed for CC(C)(C)c1nc2c3ccc(F)cc3c3c(=O)[nH]ccc3c2[nH]1 , thanks.
RESULT: 22.3

QUERY: residual activity lookup needed for COc1cc2ncnc(Nc3ccc(F)c(Cl)c3)c2cc1OCCCN1CCOCC1 , thanks.
RESULT: 95.3

QUERY: residual activity lookup needed for O=c1cc(N2CCNCC2)oc2c(-c3ccccc3)cccc12 , thanks.
RESULT: 105
